Molecular target: CUG-BP2 RRM3 H429A (UniProt O95319 416-508, H429A;Y508W)
Sequence (O95319 416-508 H429A/Y508W): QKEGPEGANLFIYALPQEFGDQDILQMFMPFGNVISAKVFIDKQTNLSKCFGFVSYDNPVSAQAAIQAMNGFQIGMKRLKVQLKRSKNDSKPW
Test: NMR 15N-HSQC titration; 20 mM K phosphate pH 5.8, 10 mM NaCl, 0.1% beta-mercaptoethanol, 25 C (NMR titrations and ITC); hnRNP A1: 10 mM Na phosphate pH 6.5, 10 mM beta-mercaptoethanol
Details: protein: recombinant; tags: His-tag (pET28a)
measuredParameter: Kd (µM)
The figure you give is taken to be in µM; do not add the unit.

Task: # query: Kd of entry UUUAA (ssRNA)
Output: 30
